Tested on: Canis familiaris
Test protocol: Increasing effect on vertebral blood flow in anesthetized dogs compared to the effect of trapidil
Assay type: functional, Canis lupus familiaris
Give Vertebral blood flow for every item shown.
Write no unit; give the number alone.

Qu. Provide value of Vertebral blood flow for this record tested with Canis familiaris: O=S(=O)(NCCNCc1ccccc1)c1cccc2cnccc12
Ans. 0.57

Qu. Then this molecule: COc1ccc([C@@H]2Sc3ccccc3N(CCN(C)C)C(=O)[C@@H]2OC(C)=O)cc1 [DILTIAZEM]
Ans. 0.15

Qu. Then this molecule: NCCN(Cc1ccccc1)S(=O)(=O)c1cccc2cnccc12
Ans. 1.92

Qu. Then this molecule: O=[N+]([O-])c1ccc(CNCCNS(=O)(=O)c2cccc3cnccc23)cc1
Ans. 1.5

Qu. Then this molecule: O=S(=O)(NCCNCc1ccc(Cl)cc1)c1cccc2cnccc12
Ans. 0.25

Qu. Then this molecule: CCCCCCN(CCCCCC)CCNS(=O)(=O)c1cccc2cnccc12
Ans. 0.48

Qu. Then this molecule: CCCCCCCCNCCNS(=O)(=O)c1cccc2cnccc12
Ans. 0.53

Qu. Then this molecule: CCCCCCCCCCNCCNS(=O)(=O)c1cccc2cnccc12
Ans. 0.49

Qu. Then this molecule: CN(CCN)S(=O)(=O)c1cccc2cnccc12
Ans. 1.6
